target: CDK2 (Homo sapiens); construct: endogenous in cells; host or cells: MKN1 cells; assay: CDK2 degradation in MKN1 cells (AlphaLISA); format: cell-based; details: 14 h incubation, read-out: CDK2 degradation 14 h: Mean external-Abs DC50
outcomeMeasure: DC50

1. Cc1cc(S(=O)(=O)NC2CCC(CN3CCN(c4cccc(NC5CCC(=O)NC5=O)c4F)CC3)CC2)ccc1Nc1ncc(C(F)(F)F)c(N2CCCC(C)(O)C2)n1 (stereo not drawn) | < 0.1 µM
2. Cc1cc(S(=O)(=O)NC2CC(N3CCN(CC4CCN(c5ccc(C6CCC(=O)NC6=O)c(Cl)c5)CC4)CC3)C2)ccc1Nc1ncc(C(F)(F)F)c(N2CCCC(C)(O)C2)n1 (stereo not drawn) [I-713] | < 0.1 µM
3. Cc1cc(S(=O)(=O)N[C@H]2C[C@H](N3CCN(CC4CCN(c5cccc6c5n(C)c(=O)n6C5CCC(=O)NC5=O)CC4)CC3)C2)ccc1Nc1ncc(C(F)(F)F)c(N2CCC[C@H](C(F)F)C2)n1 (stereo partly drawn) | < 0.1 µM

----------
target: CDK2 (Homo sapiens); construct: endogenous in cells; host or cells: MKN1 cells; experiment: CDK2 degradation in MKN1 cells (AlphaLISA); type: cell-based; settings: 14 h incubation
outcomeMeasure: CDK2 degradation 14 h: Average Dmax %

1) [2H]C([2H])([2H])c1cc(S(=O)(=O)NC2CCC(CN3CCN(c4ccc(C5CCC(=O)NC5=O)c(F)c4)CC3)CC2)ccc1Nc1ncc(C(F)(F)F)c(N2CCCC(C)(O)C2)n1 (stereo not shown) [I-1072] | A (A (>75% o))
2) Cc1cc(S(=O)(=O)NCCCN2CCN(C3CCN(c4ccc5c(c4)n(C)c(=O)n5C4CCC(=O)NC4=O)CC3)CC2)ccc1Nc1ncc2cc(Cl)c(=O)n(C(C)C)c2n1 (stereo not shown) [I-398] | A (A (>75% o))
3) Cc1cc(S(=O)(=O)N2CCC(CN(CC(F)(F)F)C3CCN(c4cccc5c4n(C)c(=O)n5C4CCC(=O)NC4=O)CC3)CC2)ccc1Nc1ncc2cc(Cl)c(=O)n(C3CCCC34CC4)c2n1 (stereo not shown) [I-354] | D (D (<25%))
4) Cc1cc(S(=O)(=O)NCCOCCOCCOCCCc2ccc3c(c2)n(C)c(=O)n3C2CCC(=O)NC2=O)ccc1Nc1ncc2ccc(=O)n(C3CCCC3)c2n1 (stereo not shown) [I-474] | A (A (>75% o))
5) Cc1cc(S(=O)(=O)NC2CCN(CC3CCN(c4c(F)ccc5c4n(C)c(=O)n5C4CCC(=O)NC4=O)CC3)CC2F)ccc1Nc1ncc2c(n1)N(C1CCCC(O)C1)C(=O)C21CC1 (stereo not shown) [I-949] | A (A (>75% o))
6) Cc1cc(S(=O)(=O)NC2CCC(CN3CCN(c4ccc(C(=O)NC5CCC(=O)NC5=O)cc4C)CC3)CC2)ccc1Nc1ncc(C(F)(F)F)c(N2CCCC(C)(O)C2)n1 (stereo not shown) [I-1126] | A (A (>75% o))
7) CC1(O)CCCN(c2nc(Nc3ccc(S(=O)(=O)NC4CCC(CN5CCN(c6ccc(C7CCC(=O)NC7=O)c(F)c6)CC5)CC4)cc3OC(F)F)ncc2C(F)(F)F)C1 (stereo not shown) [I-1115] | A (A (>75% o))
8) Cc1cc(S(=O)(=O)N2CCC(OCC#Cc3cccc4c3n(C)c(=O)n4C3CCC(=O)NC3=O)CC2)ccc1Nc1ncc2cc(Cl)c(=O)n(C3CCCC3)c2n1 (stereo not shown) [I-455] | D (D (<25%))
9) Cc1cc(S(=O)(=O)NC2CCC(CN3CCN(c4ccc(NC5CCC(=O)NC5=O)cc4F)CC3)CC2)ccc1Nc1ncc(C(F)(F)F)c(N2CCCC(C)(O)C2)n1 (stereo not shown) [I-822] | A (A (>75% o))
10) Cc1cc(S(=O)(=O)C2CC3(CCN(CC4CCN(c5ccc6c(c5F)n(C)c(=O)n6C5CCC(=O)NC5=O)CC4)CC3)C2)ccc1Nc1ncc2cc(Cl)c(=O)n(C3CCOCC3)c2n1 (stereo not shown) [I-130] | D (D (<25%))
11) Cc1cc(S(=O)(=O)C2CC3(CCN(CC4CCN(c5ccc(NC6CCC(=O)NC6=O)c(Cl)c5)CC4)CC3)C2)ccc1Nc1ncc2cc(Cl)c(=O)n(C3CCCC3)c2n1 (stereo not shown) [I-329] | A (A (>75% o))
12) Cc1cc(S(=O)(=O)NC(C)COC2CCC(CN3CCN(c4ccc5c(c4F)n(C)c(=O)n5C4CCC(=O)NC4=O)CC3)CC2)ccc1Nc1ncc(C(F)(F)F)c(N2CCC(C(C)(C)O)C2)n1 (stereo not shown) [I-858] | A (A (>75% o))
13) O=C1CCC(c2ccc(N3CCC(CN4CCC(NS(=O)(=O)c5ccc(Nc6ncc7c(n6)N(C6CCCC(O)C6)C(=O)C76CC6)c(F)c5)C(F)C4)CC3)cc2F)C(=O)N1 (stereo not shown) [I-950] | A (A (>75% o))
14) Cc1cc(S(=O)(=O)C2CC3(CCN(CC4CCN(c5cccc6c5n(C)c(=O)n6C5CCC(=O)NC5=O)CC4)CC3)C2)ccc1Nc1ncc2cc(Cl)c(=O)n(C3CCCC34CC4)c2n1 (stereo not shown) [I-44] | A (A (>75% o))
15) Cc1cc(S(=O)(=O)NC2CCC(CN3CCN(c4cccc(C5CCC(=O)NC5=O)c4)CC3)CC2)ccc1Nc1ncc2c(n1)N(C1CCCC(O)C1)C(=O)C21CC1 (stereo not shown) [I-938] | C (C (>25% -50%))
16) Cc1cc(S(=O)(=O)NCCCN2CCN(CC3CCN(c4ccc5c(c4)n(C)c(=O)n5C4CCC(=O)NC4=O)CC3)CC2)ccc1Nc1ncc2cc(Cl)c(=O)n(C(C)C)c2n1 (stereo not shown) [I-400] | A (A (>75% o))
17) Cc1cc(S(=O)(=O)NC2CCC(CN3CCN(c4ccc(C5CCC(=O)NC5=O)c(C)c4F)CC3)CC2)ccc1Nc1ncc(C(F)(F)F)c(N2CCCC(C)(O)C2)n1 (stereo not shown) [I-812] | A (A (>75% o))
18) Cc1cc(S(=O)(=O)NCCOCCOCCOCCOCCCc2ccc3c(c2)n(C)c(=O)n3C2CCC(=O)NC2=O)ccc1Nc1ncc2ccc(=O)n(C3CCCC3)c2n1 (stereo not shown) [I-973] | A (A (>75% o))
19) Cc1cc(S(=O)(=O)NC2CCC(CN3CCC(c4ccc(C5CCC(=O)NC5=O)c(F)c4)CC3)CC2)ccc1Nc1ncc(C(F)(F)F)c(N2CCCC(C)(O)C2)n1 (stereo not shown) [I-1131] | A (A (>75% o))
20) Cc1cc(S(=O)(=O)N2CCC(CN(C)C3CCN(c4cccc5c(N6CCC(=O)NC6=O)cncc45)CC3)CC2)ccc1Nc1ncc2cc(Cl)c(=O)n(C3CCCC3)c2n1 [I-416] | A (A (>75% o))
21) Cc1cc(S(=O)(=O)N2CC3(CC(OCCN4CCC(c5ccc6c(c5)n(C)c(=O)n6C5CCC(=O)NC5=O)CC4)C3)C2)ccc1Nc1ncc2cc(Cl)c(=O)n(C3CCCC3)c2n1 (stereo not shown) [I-418] | C (C (>25% -50%))

----------
biological target: CDK2 (Homo sapiens); construct: endogenous in cells; host or cells: MKN1 cells; assay: CDK2 degradation in MKN1 cells (AlphaLISA); format: cell-based; conditions: 14 h incubation
outcomeMeasure: CDK2 degradation 14 h: Average Dmax %

1. Cc1cc(S(=O)(=O)N2CCC(N3CCN(CCCc4ccc5c(c4)n(C)c(=O)n5C4CCC(=O)NC4=O)CC3)CC2)ccc1Nc1ncc2ccc(=O)n(C3CCCC3)c2n1 (stereo not drawn) | B (B (>50% -75%))
2. [2H]C(C)(COC1CCC(CN2CCN(c3ccc4c(c3F)n(C)c(=O)n4C3CCC(=O)NC3=O)CC2)CC1)NS(=O)(=O)c1ccc(Nc2ncc(C(F)(F)F)c(C3CCC(C)(O)CC3)n2)c(C)c1 (racemic) | A (A (>75% o))
3. Cc1cc(S(=O)(=O)NC2(C)CCN(CC3CCN(c4ccc(C5CCC(=O)NC5=O)c(Cl)c4)CC3)CC2)ccc1Nc1ncc(C(F)(F)F)c(N2CCC[C@](C)(O)C2)n1 (stereo partly drawn) | A (A (>75% o))
4. Cc1cc(S(=O)(=O)NCCC2CCN(c3ccc(N4CCC(=O)NC4=O)cc3)CC2)ccc1Nc1ncc2cc(Cl)c(=O)n(C3CCCC3)c2n1 | B (B (>50% -75%))
5. Cc1cc(S(=O)(=O)N2CCC(CN3CCN(Cc4cccc5c4n(C)c(=O)n5C4CCC(=O)NC4=O)CC3)CC2)ccc1Nc1ncc2ccc(=O)n(C3CCCC3)c2n1 (stereo not drawn) | B (B (>50% -75%))

Data provenance is patent US20240173419A1.
